- SYSTEM: stromelysin-1 (MMP-3) (Homo sapiens)
- Sequence (P08254 100-477, species assumed): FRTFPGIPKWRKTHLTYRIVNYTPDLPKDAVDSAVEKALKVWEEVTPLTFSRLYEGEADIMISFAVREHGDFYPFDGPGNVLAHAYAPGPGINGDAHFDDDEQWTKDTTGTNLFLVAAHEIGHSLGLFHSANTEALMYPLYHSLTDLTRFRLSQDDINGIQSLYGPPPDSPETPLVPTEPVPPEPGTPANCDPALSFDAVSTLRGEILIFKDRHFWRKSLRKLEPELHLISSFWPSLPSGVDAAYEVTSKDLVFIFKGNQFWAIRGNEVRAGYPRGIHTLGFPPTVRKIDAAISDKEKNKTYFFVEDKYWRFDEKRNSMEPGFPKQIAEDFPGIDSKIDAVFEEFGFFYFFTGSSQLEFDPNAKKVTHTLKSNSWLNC
pIC50: −log10 of the molar value.

SMILES_NOTATION: CNC(=O)[C@@H](NC(=O)[C@H](CC(C)C)NC(=O)[C@@H](S)CCN1C(=O)N(C)C(C)(C)C1=O)C(C)(C)C
pIC50: 6.80

----------
- SYSTEM: UniProt:P22894
- Sequence (P22894 101-467, species assumed): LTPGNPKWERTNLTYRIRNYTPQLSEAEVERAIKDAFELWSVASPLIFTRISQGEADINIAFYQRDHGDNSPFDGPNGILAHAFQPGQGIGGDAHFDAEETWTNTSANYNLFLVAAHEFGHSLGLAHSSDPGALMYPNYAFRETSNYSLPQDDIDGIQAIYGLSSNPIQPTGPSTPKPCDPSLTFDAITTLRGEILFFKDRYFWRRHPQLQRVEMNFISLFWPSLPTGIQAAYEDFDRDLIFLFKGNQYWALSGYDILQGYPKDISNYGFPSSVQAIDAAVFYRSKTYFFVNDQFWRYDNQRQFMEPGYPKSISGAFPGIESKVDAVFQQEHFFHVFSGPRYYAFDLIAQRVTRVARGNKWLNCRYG

SMILES_NOTATION: CNC(=O)[C@@H](NC(=O)[C@H](CC(C)C)NC(=O)[C@@H](S)CCN1C(=O)N(C)C(C)(C)C1=O)C(C)(C)C
SYSTEM: UniProt:P22894
IC50 / nM: 10

----------
Target protein (sequence): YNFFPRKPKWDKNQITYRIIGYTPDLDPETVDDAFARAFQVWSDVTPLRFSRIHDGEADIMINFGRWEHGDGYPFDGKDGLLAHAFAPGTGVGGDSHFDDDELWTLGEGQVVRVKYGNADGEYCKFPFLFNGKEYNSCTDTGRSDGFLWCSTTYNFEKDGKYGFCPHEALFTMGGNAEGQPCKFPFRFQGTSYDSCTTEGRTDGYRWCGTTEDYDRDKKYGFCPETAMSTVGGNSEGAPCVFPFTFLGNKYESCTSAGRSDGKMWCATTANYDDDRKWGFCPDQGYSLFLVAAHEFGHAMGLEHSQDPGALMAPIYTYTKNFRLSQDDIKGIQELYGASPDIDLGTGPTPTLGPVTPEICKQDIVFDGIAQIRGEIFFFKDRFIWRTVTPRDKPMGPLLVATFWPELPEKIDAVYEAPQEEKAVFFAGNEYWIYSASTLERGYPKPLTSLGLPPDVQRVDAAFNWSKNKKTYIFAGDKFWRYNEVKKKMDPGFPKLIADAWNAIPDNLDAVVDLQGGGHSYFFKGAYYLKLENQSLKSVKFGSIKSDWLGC
pIC50: −log10 of the molar value.
MEASUREMENT_NAME: pIC50

SMILES_NOTATION: CNC(=O)[C@@H](NC(=O)[C@H](CC(C)C)NC(=O)[C@@H](S)CCN1C(=O)N(C)C(C)(C)C1=O)C(C)(C)C
VALUE: 7.39
--
SMILES_NOTATION: CNC(=O)[C@@H](NC(=O)[C@H](CC(C)C)NC(=O)[C@@H](S)CCCN1C(=O)c2ccccc2C1=O)C(C)(C)C
VALUE: 7.82

----------
- SYSTEM: collagenase-3 (MMP-13) (Homo sapiens)
pIC50: −log10 of the molar value.

SMILES_NOTATION: CNC(=O)[C@@H](NC(=O)[C@H](CC(C)C)NC(=O)[C@@H](S)CCN1C(=O)CCC1=O)C(C)(C)C
pIC50: 8.40
